TGT: T1, extracellular domain (ECD) of human TrkA protein, N-terminal flag tag and C-terminal His tag (PHA) (human, UniProt P04629 33-423)
T1 construct: Made in 293-F cells and purified by IMAC; also called TrkA ECD protein; TrkA (ECD); not shown: flag tag at the N-terminus (after the signal peptide); His tag at the C-terminus
PROTOCOL_DESCRIPTION: BLI (Octet Red384), as in Example 4
Protocol: The bio-layer interferometry (BLI) method was used to determine the affinities of the antibodies, employing Octet Red384. Briefly, anti-human Fc-coated biosensor AHQ tips (ForteBio) were put into PBS with 0.1% w/v bovine serum albumin and 0.05% Tween-20 for a minimum of 10 min in the pre-wetting plate. […] Then, the association rates, dissociation rates and response were measured, using an antigen of 100 nM (in PBS with 0.1% bovine serum albumin and 0.05% Tween-20). […]
PROPERTY: kon
Provide the measurement as a number trailed by its unit.

Worked cases, answers included:
Reported kon of chi-PHD48 (the chimeric antibody derived from muPHD48) (antibody, V domains shown, Chimeric: VH in the pCDNA3.4-hIgG4 vector and VL in the pCDNA3.4-hKappa vector (human IgG4 / human kappa constant regions)) VH: EVQLQQSGTVLARPGASVKMSCKASGYSFTTYWMHWVKQRPGQGLEWIGTIYPGNSDSSNNQKFKGKAKLTAVTSASTAYMELSSLTNEDSAVYYCTRFYYEDWYFDVWGAGTTVTVSS VL: QIVLTQSPAIMSASPGEKVTISCSASSSVSYMYWFQQKPGSSPKPWIYRTSNLASGVPARFSGSGSGTSYSLTISSMEAEDAATYYCQQYHSYPPTFGGGTKLEIK : 272000 M⁻¹ s⁻¹

kon recorded for this binder, PHD48-01 (humanized muPHD48) (antibody, human IgG4, V domains shown) VH: QVQLVQSGAEVKKPGASVKVSCKASGYSFTTYWMHWVRQAPGQGLEWIGTIYPGNSDSSNNQKFKGRATLTADTSTSTAYMELSSLRSEDTAVYYCTRFYYEDWYFDVWGQGTMVTVSS VL: DIQMTQSPSSLSASVGDRVTITCSASSSVSYMYWFQQKPGKAPKPWIYRTSNLASGVPSRFSGSGSGTDYTLTISSLQPEDFATYYCQQYHSYPPTFGGGTKVEIK , is 207000 M⁻¹ s⁻¹

Briefly, kon measured for chi-PHD49 (antibody, V domains shown, Chimeric: human IgG4 / human kappa constant regions (pCDNA3.4-hIgG4 and pCDNA3.4-hKappa vectors)) VH: QVQLQQSGAELARPGASVKLSCKASGYTFSSYWMQWVKQRPGQGLEWIGAIYPGDDDTIYTQKFKGKATLTADKSSSTAYMQLSSLASEDSAVYYCARNYDYQAWFAYWGQGTLVTVSA VL: QIVLTQSPALMSASPGEKVTMTCSASSSVSYMYWYQQKPRSSPKPWIYLTSNLASGVPARFSGSGSGTSYSLTISSMEAEDAATYYCQQWSSNPLTFGAGTKLELK : 229000 M⁻¹ s⁻¹

Kindly review the next binder as well.
The recorded kon for PHD49-11 (antibody, IgG4, V domains shown) VH: QVQLVQSGAEVKKPGSSVKVSCKASGYTFSSYWMQWVRQAPGQGLEWIGAIYPGDDDTIYTQKFKGRATITADKSTSTAYMELSSLRSEDTAVYYCARNYDYQAWFAYWGQGTLVTVSS VL: DIQMTQSPSSLSASVGDRVTITCRASSSVSYLYWYQQKPGKAPKPWIYLTSNLASGVPSRFSGSGSGTDYTLTISSLQPEDFATYYCQQWSSNPLTFGQGTKLEIK is 196000 M⁻¹ s⁻¹
